# test: Drug level in rat brain at 10 mg/kg, po
# Format: ADME, organism-based
# Set-up: dose 10 mg/kg, route oral
quantity measured: AUC (ng·h/mL)
# unit: ng·h/mL | format: bare number

| compound structure | readout unit | readout number |
| --- | --- | --- |
| O=C(O)CC1CCN(C(=O)OC2([C@H]3COC[C@@H](C4CC4)N3S(=O)(=O)c3ccc(Cl)cc3)CC2)CC1 | ng·h/mL | 2460 |

Proceed to the following item.
Query string: For CC(C)(C(=O)O)C1CCN(C(=O)OC2([C@H]3COC[C@@H](C4CC4)N3S(=O)(=O)c3ccc(Cl)cc3)CC2)CC1 , write its AUC.
Result string: 703

---

# test: Inhibition of gamma-secretase assessed as reduction in membrane amyloid beta40 production
Overview of recorded pIC50 for various compounds
Remember the convention: pIC50 equals -log10 of concentration in molar.

Worked cases, answers included:
| compound structure | quantity measured | readout number |
| --- | --- | --- |
| O=C(OC1([C@H]2COC[C@@H](C3CC3)N2S(=O)(=O)c2ccc(Cl)cc2)CC1)N1CC2CCC(C1)N2CCO | pIC50 | 8.10 |
| C[C@@H]1CN(C(=O)OC2([C@H]3COC[C@@H](C4CC4)N3S(=O)(=O)c3ccc(Cl)cc3)CC2)CCN1CCO | pIC50 | 7.43 |

Query string: For O=C(OC1([C@H]2COC[C@@H](C3CC3)N2S(=O)(=O)c2ccc(Cl)cc2)CC1)N1CC[C@H](O)C1 , write its pIC50.
Result string: 7.57

Query string: For O=C(OC1([C@H]2COC[C@@H](C3CC3)N2S(=O)(=O)c2ccc(Cl)cc2)CC1)N1CC[C@H](NS(=O)(=O)C(F)(F)F)C1 , write its pIC50.
Result string: 7.31

Query string: For CN(C)CC(=O)N1C2CCC1CN(C(=O)OC1([C@H]3COC[C@@H](C4CC4)N3S(=O)(=O)c3ccc(Cl)cc3)CC1)C2 , write its pIC50.
Result string: 8.05

Query string: For CC(C)(CO)N1CCN(C(=O)OC2([C@H]3COC[C@@H](C4CC4)N3S(=O)(=O)c3ccc(Cl)cc3)CC2)CC1 , write its pIC50.
Result string: 8.02

Query string: For CC(C)(CO)N1CCN(C(=O)OC2([C@H]3COC[C@@H](c4cc(F)cc(F)c4)N3S(=O)(=O)c3ccc(Cl)cc3)CC2)CC1 , write its pIC50.
Result string: 8.85

Query string: For O=C(OC1([C@H]2COC[C@@H](C3CC3)N2S(=O)(=O)c2ccc(Cl)cc2)CC1)N1CC[C@H](OCCO)C1 , write its pIC50.
Result string: 7.70

Query string: For O=C(O)CC1CCN(C(=O)OC2([C@H]3COC[C@@H](C4CC4)N3S(=O)(=O)c3ccc(Cl)cc3)CC2)CC1 , write its pIC50.
Result string: 7.62

Query string: For O=C(OC1([C@H]2COC[C@@H](C3CC3)N2S(=O)(=O)c2ccc(Cl)cc2)CC1)N1C2CCC1CN(CCO)C2 , write its pIC50.
Result string: 7.82

---

Overview of recorded AUC(0-t) at 6 h for various compounds
# test: AUC (0 to 6 hrs) in rat blood at 10 mg/kg, po
# Format: ADME, organism-based
# Parameters: time < 6 hr, dose 10 mg/kg, route oral
# unit: ng·h/mL | format: bare number

| compound structure | quantity measured | readout number |
| --- | --- | --- |
| CCN1C2CCC1CN(C(=O)OC1([C@H]3COC[C@@H](C4CC4)N3S(=O)(=O)c3ccc(Cl)cc3)CC1)C2 | AUC(0-t) at 6 h | 1100 |
| CC1(C)OC[C@H](C2(OC(=O)N3CC4CCC(C3)N4CCO)CC2)N(S(=O)(=O)c2ccc(Cl)cc2)[C@@H]1C1CC1 | AUC(0-t) at 6 h | 1370 |
| O=C(OC1([C@H]2COC[C@@H](C3CC3)N2S(=O)(=O)c2ccc(Cl)cc2)CC1)N1CC2CCC(C1)N2 | AUC(0-t) at 6 h | 4360 |
| O=C(OC1([C@H]2COC[C@@H](C3CC3)N2S(=O)(=O)c2ccc(Cl)cc2)CC1)N1C2CCC1CN(CCO)C2 | AUC(0-t) at 6 h | 1280 |
| O=C(OC1([C@H]2COC[C@@H](C3CC3)N2S(=O)(=O)c2ccc(Cl)cc2)CC1)N1CC[C@H](NS(=O)(=O)C(F)(F)F)C1 | AUC(0-t) at 6 h | 870 |

Proceed to the following item.
Query string: For CN1CC2CCC(C1)N2C(=O)OC1([C@H]2COC[C@@H](C3CC3)N2S(=O)(=O)c2ccc(Cl)cc2)CC1 , write its AUC(0-t) at 6 h.
Result string: 2910

---

Overview of recorded IC50 for various compounds
# test: Inhibition of gamma-secretase assessed as reduction in membrane amyloid beta40 production
# unit: nM | format: bare number

Worked cases, answers included:
| compound structure | readout unit | IC50 |
| --- | --- | --- |
| CC(C)(C(=O)O)C1CCN(C(=O)OC2([C@H]3COC[C@@H](C4CC4)N3S(=O)(=O)c3ccc(Cl)cc3)CC2)CC1 | nM | 30 |
| C[C@@H]1OC[C@H](C2(OC(=O)N3CC4CCC(C3)N4CCO)CC2)N(S(=O)(=O)c2ccc(Cl)cc2)[C@@H]1C1CC1 | nM | 1.5 |
| NC(=O)CC1CCN(C(=O)OC2([C@H]3COC[C@@H](C4CC4)N3S(=O)(=O)c3ccc(Cl)cc3)CC2)CC1 | nM | 14 |

Proceed to the following item.
Query string: For CC(=O)N1C2CCC1CN(C(=O)OC1([C@H]3CO[C@H](C)[C@@H](C4CC4)N3S(=O)(=O)c3ccc(Cl)cc3)CC1)C2 , write its IC50.
Result string: 4

---

# test: Inhibition of gamma-secretase assessed as reduction in cell amyloid beta40 production
quantity measured: pIC50
Remember the convention: pIC50 equals -log10 of concentration in molar.

Worked cases, answers included:
| compound structure | pIC50 |
| --- | --- |
| CC(C)(CO)N1CCN(C(=O)OC2([C@H]3COC[C@@H](C4CC4)N3S(=O)(=O)c3ccc(Cl)cc3)CC2)CC1 | 8.05 |
| CC(=O)N1C2CCC1CN(C(=O)OC1([C@H]3COC[C@@H](C4CC4)N3S(=O)(=O)c3ccc(Cl)cc3)CC1)C2 | 7.60 |

Query string: For O=C(OC[C@H]1CCC[C@@H](c2cc(F)cc(F)c2)N1S(=O)(=O)c1ccc(Cl)cc1)N1CCN(CCO)CC1 , write its pIC50.
Result string: 6.78

Query string: For O=C(OC1([C@H]2CCC[C@@H](c3cc(F)cc(F)c3)N2S(=O)(=O)c2ccc(Cl)cc2)CC1)N1CCN(CCO)CC1 , write its pIC50.
Result string: 8.30

Query string: For CN(C)CC(=O)N1C2CCC1CN(C(=O)OC1([C@H]3COC[C@@H](C4CC4)N3S(=O)(=O)c3ccc(Cl)cc3)CC1)C2 , write its pIC50.
Result string: 7.51

---

# test: AUC (0 to 6 hrs) in rat blood at 10 mg/kg, po
# Assay type: ADME, organism-based
# Parameters: time < 6 hr, dose 10 mg/kg, route oral
quantity measured: AUC(0-t) at 6 h (ng·h/mL)
# unit: ng·h/mL | format: bare number

Worked cases, answers included:
| compound structure | readout unit | AUC(0-t) at 6 h |
| --- | --- | --- |
| NC(=O)CC1CCN(C(=O)OC2([C@H]3COC[C@@H](C4CC4)N3S(=O)(=O)c3ccc(Cl)cc3)CC2)CC1 | ng·h/mL | 35 |
| O=C(OC1([C@H]2COC[C@@H](C3CC3)N2S(=O)(=O)c2ccc(Cl)cc2)CC1)N1C2CCC1CNC2 | ng·h/mL | 4660 |
| CC(=O)N1C2CCC1CN(C(=O)OC1([C@H]3COC[C@@H](C4CC4)N3S(=O)(=O)c3ccc(Cl)cc3)CC1)C2 | ng·h/mL | 871 |
| O=C(OC1([C@H]2COC[C@@H](C3CC3)N2S(=O)(=O)c2ccc(Cl)cc2)CC1)N1CC[C@H](OCCO)C1 | ng·h/mL | 11 |
| O=C(OC1([C@H]2COC[C@@H](C3CC3)N2S(=O)(=O)c2ccc(Cl)cc2)CC1)N1CC2CCC(C1)N2CCO | ng·h/mL | 1920 |

Query string: For CC(=O)N1C2CCC1CN(C(=O)OC1([C@H]3CO[C@@H](C)[C@@H](C4CC4)N3S(=O)(=O)c3ccc(Cl)cc3)CC1)C2 , write its AUC(0-t) at 6 h.
Result string: 178

Query string: For CN1C2CCC1CN(C(=O)OC1([C@H]3COC[C@@H](C4CC4)N3S(=O)(=O)c3ccc(Cl)cc3)CC1)C2 , write its AUC(0-t) at 6 h.
Result string: 939

Query string: For CN(C)CC(=O)N1C2CCC1CN(C(=O)OC1([C@H]3COC[C@@H](C4CC4)N3S(=O)(=O)c3ccc(Cl)cc3)CC1)C2 , write its AUC(0-t) at 6 h.
Result string: 567

Query string: For CC(C)(CO)N1CCN(C(=O)OC2([C@H]3COC[C@@H](C4CC4)N3S(=O)(=O)c3ccc(Cl)cc3)CC2)CC1 , write its AUC(0-t) at 6 h.
Result string: 446

Query string: For CC(=O)N1C2CCC1CN(C(=O)OC1([C@H]3COC(C)(C)[C@@H](C4CC4)N3S(=O)(=O)c3ccc(Cl)cc3)CC1)C2 , write its AUC(0-t) at 6 h.
Result string: 6

Query string: For CC(=O)N1C2CCC1CN(C(=O)OC1([C@H]3CO[C@H](C)[C@@H](C4CC4)N3S(=O)(=O)c3ccc(Cl)cc3)CC1)C2 , write its AUC(0-t) at 6 h.
Result string: 23
